Listing of entries alongside the reported inhibition.
test: inhibitors of the yeast RAM network, pilot screen, dse1pr::URA3 reporter, 5-FOA selection (AID 869);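 further: 0% = DMSO wells with no growth and 100% = 10 µM 1-NA-PP1 with full growth; RAM network block rescues cells from 5-FOA so hits raise OD615 growth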; details: S. cerevisiae dse1pr::URA3 5-FOA growth, OD615, 2 d; at 10 µM; active compounds read high; strain carries analog-sensitive mutant Cbk1 kinase

[
  {
    "COMPOUND": "CC(C)N(Cc1nc(-c2ccc(Cl)cc2)no1)C(=O)CCC1CCCC1",
    "inhibition [%]": 0.865
  },
  {
    "COMPOUND": "COc1ccc(-c2nc(-c3ccc(Br)o3)no2)cc1OC",
    "inhibition [%]": 0.88
  },
  {
    "COMPOUND": "O=c1oc(-c2cccnc2)nc2ccccc12",
    "inhibition [%]": 0.595
  },
  {
    "COMPOUND": "Cc1c(N=Cc2ccco2)c(=O)n(-c2ccccc2)n1C",
    "inhibition [%]": 1.39
  },
  {
    "COMPOUND": "O=C(CSc1ncccn1)NCCc1ccccc1",
    "inhibition [%]": 2.3
  },
  {
    "COMPOUND": "CCOC(=O)c1c(N=CN(C)C)c(C#N)n2c1CCC2",
    "inhibition [%]": 1.11
  },
  {
    "COMPOUND": "COc1ccc(-c2nc(CNS(=O)(=O)c3cc(OC)ccc3OC)cs2)cc1",
    "inhibition [%]": 0.53
  },
  {
    "COMPOUND": "CCN(CC)CCCNC(=O)c1cc2c(-c3ccc(Cl)cc3)nn(C)c2s1",
    "inhibition [%]": -0.18
  },
  {
    "COMPOUND": "CCOC(=O)C(C)Sc1nnc(Cn2c(=O)sc3ccccc32)n1-c1ccccc1 (configuration not stated)",
    "inhibition [%]": 1.81
  },
  {
    "COMPOUND": "O=C(NCCc1ccc(Cl)cc1)c1cnc2n(c1=O)CCS2",
    "inhibition [%]": 0.37
  },
  {
    "COMPOUND": "COc1cc(C(c2sc3nc(C)nn3c2O)N2CCc3ccccc3C2)cc(OC)c1OC (configuration not stated)",
    "inhibition [%]": 1.23
  },
  {
    "COMPOUND": "Cc1ccc(-n2c(SCC(=O)Nc3nccs3)nc3c(c2=O)SCC3)cc1",
    "inhibition [%]": 3.41
  },
  {
    "COMPOUND": "Cc1ccc(C(=O)NCCCC(=O)O)o1",
    "inhibition [%]": 0.1
  },
  {
    "COMPOUND": "CCOC(=O)C(C(=O)OCC)c1cc(Br)c2noc3c2c1C(=O)c1ccccc1-3",
    "inhibition [%]": 1.65
  },
  {
    "COMPOUND": "COc1ccc(C(=O)N2CCN(c3ccc(C)cc3)CC2)cc1OC",
    "inhibition [%]": 0.81
  },
  {
    "COMPOUND": "COc1ccc(S(=O)(=O)n2cnc3cc(C)c(C)cc32)cc1",
    "inhibition [%]": 1.26
  },
  {
    "COMPOUND": "Cc1noc(C)c1S(=O)(=O)N(CC(=O)Nc1ccc2c(c1)OCO2)c1ccc(C(C)C)cc1",
    "inhibition [%]": 2.64
  }
]
